test: RP, GL Sciences Inertsil ODS-4, 150 × 2.1 mm, 3 µm, 40 °C, 0.3 mL/min, estimated dead time 1.1 min; A: water + 5 mM ammonium acetate; B: methanol + 5 mM ammonium acetate; gradient (min/%B) 0/5 30/95 50/95; conditions: stereoisomer not certain
REPORTED ENDPOINT: LC retention time (min)
# number only, unit min dropped from output

For reference, reported LC retention time for CCC1CCCC(OC2CCC(N(C)C)C(C)O2)C(C)C(=O)C2=CC3C(C=C(C)C4CC(OC5OC(C)C(OC)C(OC)C5OC)CC43)C2CC(=O)O1 (centres undefined) stands at 34.9

The recorded LC retention time for CCOc1nc(NC)nc(NC(=O)NS(=O)(=O)c2ccccc2C(=O)OC)n1 is 17.7

Note to self: LC retention time recorded for CSC1=NC(C)(c2ccccc2)C(=O)N1Nc1ccccc1 (centres undefined) was 26.3

molecule CC(C)(C)NCC(O)c1cc(O)cc(O)c1 (centres undefined) , LC retention time observed: 8.97

Short answer for CC12CCC(=O)C=C1CCC1C2CCC2(C)C(O)CCC12 (centres undefined) : LC retention time was 26.6

Sample COP(=O)(OC)Oc1ccc(S(C)=O)c(C)c1 (centres undefined) ; LC retention time observed: 16.9

Record Cc1cc(C)cc(C(=O)N(NC(=O)c2ccc3c(c2C)CCCO3)C(C)(C)C)c1 . Reported LC retention time: 27.9

Value of LC retention time reported for the molecule Cc1nnc(NS(=O)(=O)c2ccc(N)cc2)s1 is 9.03

# molecule CCC(C(=O)O)C1CCC(C)C(C(C)C(O)C(C)C(=O)C(CC)C2OC3(C=CC(O)C4(CCC(C)(C5CCC(O)(CC)C(C)O5)O4)O3)C(C)CC2C)O1 (centres undefined) ; its LC retention time = 35.5
